Please go through the items and note down their kon.
Molecular target: T1, recombinant GPRC5D antigen (Human GPRC5D protein-Flag-His tag (51.8KD) ACRO Cat: GPD-H52D3) (human, UniProt Q9NZD1 1-345, limits assumed)
T1 construct: Bought protein; also called CPRG5D; not shown: Flag-His tag
T1 sequence (Q9NZD1 whole entry): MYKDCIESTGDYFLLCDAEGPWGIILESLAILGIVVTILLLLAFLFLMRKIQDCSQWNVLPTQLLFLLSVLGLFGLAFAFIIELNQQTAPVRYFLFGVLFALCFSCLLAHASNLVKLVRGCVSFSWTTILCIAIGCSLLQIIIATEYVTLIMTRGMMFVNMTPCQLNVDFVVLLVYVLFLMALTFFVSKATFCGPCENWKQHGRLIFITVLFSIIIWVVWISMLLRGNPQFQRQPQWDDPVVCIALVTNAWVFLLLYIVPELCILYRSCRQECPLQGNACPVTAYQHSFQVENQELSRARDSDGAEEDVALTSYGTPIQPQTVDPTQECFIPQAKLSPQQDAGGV
Assay: BLI (Octet R8), recombinant GPRC5D antigen
Answer in M⁻¹ s⁻¹, number only, no unit symbol.

Reported kon for humanized antibody 22Mono3L7F (antibody, human IgG1, V domains shown, also called 22monoO3L7) VH: EVTLKESGPVLVKPTETLTLTCTASGYPFTNYWMHWVRQPPGKALEWIGEINPSNGRTNYNEKFKSRATLSLDKSKSQAVLTMTNMDPVDTATYYCARGFAYWGQGTLVTVSS VL: EIVLTQSPATLSLSPGERATLSCSASSSVSFMHWYQQKPGQAPRRWIYDTTKLASGIPARFSGSGSGTDYTLTISSLEPEDFAVYYCQQWNSHPLTFGQGTKLEIK : what is it?
78000

Reported kon for humanized antibody 22Mono5JO4 (antibody, human IgG1, V domains shown) VH: QVQLVQSGAEVKKPGSSVKVSCRASGYPFTNYWMHWVRQAPGQGLEWIGEINPSNGRTNYNEKFKSRATLTLDKLTSTAYMELSSLTSEDTALYYCARGFAYWGQGTLVTVSS VL: EIVLTQSPGTLSLSPGERATLSCSASSSVSFMHWYQQKPGQAPRRWIYDTTKLASGIPDRFSGSGSGTDYTLTISRLEPEDFAVYYCQQWNSHPLTFGQGTTVEIK : what is it?
151000

Reported kon for humanized antibody 22Mono4DN4 (antibody, human IgG1, V domains shown) VH: ELVQSGAEVKKPGSSVKVSCKASGYPFTNYWMHWVRQAPGQGLEWIGEINPSNGRTNYNEKFKSRATLTLDKSTSTAYMELSSLRSEDTAVYYCARGFAYWGQGTLVTVSS VL: EIVLTQSPATLSLSPGERATLSCSASSSVSFMHWYQQKPGQAPRRWIYDTTKLASGVPARFSGSGSGTDYTLTISSLEPEDFAVYYCQQWNSHPLTFGQGTKVEIK : what is it?
67300

Reported kon for humanized antibody 22Mono5UQY (antibody, human IgG1, V domains shown, also called 22MonoSUQY) VH: QVQLQESGPGLVKPSETLSLTCTASGYPFTNYWMHWVRQPPGKGLEWIGEINPSNGRTNYNEKFKSRATLSLDKSKNQASLNLDSVSAADTAIYYCARGFAYWGKGSTVTVSS VL: AIQLTQSPSSLSASVGDRVTITCSASSSVSFMHWYQQKPGKAPKRWIYDTTKLASGVPSRFSGSGSGTDYTFTISSLQPEDIATYYCQQWNSHPLTFGPGTKVDIK : what is it?
86200
